Target: T1, full-length mouse CD70 with C-terminal V5 tag (mouse, UniProt O55237 1-195)
T1 construct: On transfected CHO cells; also called murine CD70
T1 sequence: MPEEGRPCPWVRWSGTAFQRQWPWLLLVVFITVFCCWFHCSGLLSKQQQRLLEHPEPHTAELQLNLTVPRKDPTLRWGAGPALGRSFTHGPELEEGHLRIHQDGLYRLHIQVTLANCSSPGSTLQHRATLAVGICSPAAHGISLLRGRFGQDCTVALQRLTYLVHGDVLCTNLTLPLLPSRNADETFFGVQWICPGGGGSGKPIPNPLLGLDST
Experiment: FACS on CHO cells, periplasmic scFv
measurementKind: binding result

# annotated cases, reported binding result shown
CD70-61 (scFv, As m32) scFv: EVQLLESGGGLVQPGGSLRLSCAASGFTFSSYAMSWVRQAPGKGLEWVSVISDSGGITDFADSVKGRFTISRDNSRNTLYLQMNSLRAEDTAVYFCARHDYSNYFFFDYWGQGTLVTVSSGGGGSGGGGSGGGGSDIQMTQSPSSLSASVGDRITITCRASQSISNYLNWYQQKPGKAPKLLISAASSLQSGVPSRFSGSGSGTDFTLTISSLQPEDFATYYCQQSYIIPPTFGQGTKVDIK: no binding
CD70-74 (scFv, As m32) scFv: EVQLLESGGGLVQPGGSLRLSCAASGFTFSSYAMSWVRQAPGKGLEWVSAISGSGGSTFYADSVQGRFTISRDNSKNTLYLQVNSLRAEDTAVYYCARHDYSNYPYFDYWGQGTLVTVSSGGGGSGGGGSGGGGSEIVLTQSPGTLSLSPGERATLSCRASQSVRGNYLAWYQQKPGQAPRLLIYGASSRATGIPDRFSGSGSGTDFTLTISRLEPEDFAVYYCQQYGYSPFTFGPGTKVDIK: no binding
CD70-12 (scFv, As m32) scFv: QAQLVESGGGVVQPGRSLRLSCAASGFTFSYYGMHWVRQAPGKCLEWVAVIWYDGSNKYYADSVKGRFTISRDNSKNTLYLQMNSLRAEDTAVYYCARDREMGSRGDFDYWGQGTLVTVSSGGGGSGGGGSGGGGSDIQMTQSPSSLSASVGDRVTITCRASQGINNYLAWFQQKPGKAPKSLIYAVSILQSGVPSKFSGSGSGTDFTLTIGNLQPEDFATYYCQQYNFYPFSFGCGTKVDIK: no binding
CD70-69 (scFv, As m32) scFv: QVQLQESGPGLVKPSETLSLTCTVSGGSVSTDGYYWSWIRQPPGKCLEWIGYIYYSGSTNYNPSLKSRVTISVDTSKNQFSLKLISVTAADTAVYYCARGIGLGFEYWGQGTLVTVSSGGGGSGGGGSGGGGSSYVLTQLSSVSVAPGQTARITCGGNNIGSKSVHWYQQKPGQAPVLVVYDDSDRPSGIPERFSGSNSGNTATLTISRVEAGDEADYYCQVWDRSSDQDVVFGCGTKLTVL: no binding

Lab note: next binder to report on.
In: For the binder CD70-71 (scFv, As m32) scFv: QVQLVESGGGVVQPGRSLRLSCAASGFTFSSYGMHWVRQAPGKCLEWVAVISYDGSNKYYADSVKGRFTISRDNSKNTLYLQMNSLRAEDTAVYYCARGRYYGSGSYNYGMDVWGQGTTVTVSSGGGGSGGGGSGGGGSDIQMTQSPSSLSASVGDRVTITCRASQSIFDYLNWYQQKPGKAPKLLIYAASSLQSGVPSRFSGSGFGTDFTLTISSLQPEDFATYYCQQSYSTPLTFGCGTKLEIK , report binding result.
Out: no binding
